meta.source: PubChem BioAssay AID179

# Test system: CEM cells HIV-1 protection, formazan growth assay
# Experimental protocol: NCI AIDS Antiviral Assay
# Condition info: measured here: growth of uninfected CEM cells
Reported metric: pIC50
Keep in mind that pIC50 stands for -log10 of concentration in molar terms.

Known results for molecules:
CC1(C)Oc2cc3oc(=O)ccc3c3c2C2C1CCC(C)(O3)C2O (centres undefined) = 3.50
C=COC(=O)N1C2CCCC(Cl)(C(C)=O)C1CC2 (centres undefined) = 4.26
CCN1CCC2(CC1)OC(c1ccccc1)C(c1ccccc1)O2 (centres undefined) = 3.95
O=C(O)c1cc(/C=C/c2cc(O)ccc2O)ccc1O = 4.81
CNC(=O)N1CN(c2ccccc2)C2(CCN(CCCC3(c4ccc(F)cc4)OCCO3)CC2)C1=O = 4.41
NC1=NN(O)C2=CC([N+](=O)[O-])C=CC2=N1 (centres undefined) = 4.69
NC(S(=O)(=O)O)S(=O)(=O)O = 4.04
Cc1ccc(NC(=S)N/C=C(\c2ccccc2)S(=O)Cc2ccccc2)c(C)c1 (centres undefined) = 4.03

Task: Looking for the measured pIC50 of `O=C1Cc2cccc(=O)c(O)c2C(=O)O1` , can you help?
Result: 3.55

Task: Another molecule to check: `O=S1c2ccccc2Sc2ccccc21`
Result: 3.76

Task: Also, `Cc1cc(N)c(C)c2c1[nH]c1ccc(O)cc12` please.
Result: 4.54

Task: Also need `C=C1C(=O)O[C@H]2[C@H]1CC(=O)/C(C)=C/CC[C@@]1(C)O[C@@H]21` , thanks.
Result: 6.10

Task: What would you report for `Cc1cc2c(C(C)C)c(O)c(O)c(C=Nc3cccc(O)c3)c2c(O)c1-c1c(C)cc2c(C(C)C)c(O)c(O)c(C=Nc3cccc(O)c3)c2c1O` ?
Result: 5.09

Task: Continue with `CC(=O)NNc1nc(C)c(C(=O)NNC(=O)C(=O)Nc2ccc(Cl)c([N+](=O)[O-])c2)s1`
Result: 3.97

Task: Next record, please: CCCCC1C=Cn2c(=O)oc3c(OC(C)C)c(C)c(O)c1c32 (centres undefined)
Result: 5.60

Task: Same read-out for `C=CC/C(C(=O)OC)=C(/C(=O)OC)N(CCC)CCC` ?
Result: 4.47

Task: Now consider `O=C1C=C(Nc2cccnc2)c2ccccc2C1=O` and answer again.
Result: 4.74

Task: Do the same for `CCC[CH2][Sn]([CH2]CCC)([O]C(=O)Cc1ccc(F)cc1)[O]C(=O)Cc1ccc(F)cc1` please
Result: 5.32

Task: Do the same for CC(C)N1CN(C(C(=O)N[C@@H]2C(=O)N3C2SC(C)(C)C3C(=O)O)c2ccccc2)CSC1=S (some centres undefined) please
Result: 3.81

----------
A collection of compounds and their measured EC50
# System: CEM cells HIV-1 protection, formazan growth assay
# Experimental protocol: NCI AIDS Antiviral Assay
Where a SMILES comes first, the peptide text is derived from it. The star is where a group is joined. Boc = CC(C)(C)OC(=O)*

Example results:
Cc1ccc(Nc2nnc(CSc3ccc(Cl)cc3)s2)c(S(=O)(=O)O)c1 = > 200 µM
O=C1/C(=C/c2cccc([N+](=O)[O-])c2)SC(=S)N1C1CC1 = > 32.4 µM
CC/C(Cl)=N\OC(=O)Nc1ccc(F)cc1F = > 20 µM
CCOP(=O)(OCC)/C(=C/n1c(=S)[nH]c2ccccc21)C(=O)OC = > 200 µM
Cc1[nH]c(=O)[nH]c(=O)c1C(=O)O = > 200 µM

Task: If you can, please state the reported EC50 value of `C1CC[N-]CC1.Oc1ccccc1C=NCCN=Cc1ccccc1O.[Co]` .
Result: > 200 µM

Task: What do you have for CC(NC(=O)OC(C)(C)C)C(=O)NC(Cc1ccccc1)C(=O)NCC(=O)O (stereo not drawn) (Boc-Ala-Phe-Gly-OH; configuration not given here) ?
Result: > 200 µM

Task: Entry to check: `CNc1cc(Cl)ccc1C(=O)N1CCC[C@H]1CO`
Result: > 200 µM

Task: Now consider CC(=O)C1C(=O)OC2C3C=CC(C3)C2C1=O (stereo unspecified) and answer again.
Result: > 309 µM

Task: Then this compound: `COc1cc(-c2cccs2)sc1-c1cccs1`
Result: > 9.77 µM

Task: Item: `Clc1cccc(C=NC23CC4CC(CC(C4)C2)C3)c1Cl`
Result: > 200 µM

Task: Next record, please: `CCC(CC)(CO)CNc1cc(Cl)nc(N)n1`
Result: > 200 µM

Task: Similarly, CC(=O)OCC(OC(C)=O)C(OC(C)=O)C(/C=N\Nc1nc2ccccc2c(=O)[nH]1)=N\Nc1nc2ccccc2c(=O)[nH]1 (stereo unspecified) ?
Result: > 200 µM

Task: Moving on to `O=C(O)Cn1nnc2c(=O)[nH][nH]c(=O)c21`
Result: > 200 µM

Task: Now the compound Cc1ccc(C)c(NC(=O)/C(=N\NC(N)=S)C(C#N)c2ccccc2)c1 (stereo unspecified)
Result: > 19.5 µM

Task: Subsequent entry: CCOC(=O)C1=C(C)N2CCCOC2(C)C(C(=O)OC)C1c1cccc([N+](=O)[O-])c1 (stereo unspecified)
Result: > 200 µM

Task: // same read-out, input: `CCOc1ccc(-n2nc(C(=O)O)cc(Cl)c2=O)cc1`
Result: > 427 µM

Task: Request: CCOC(=O)NC(NCC(O)c1ccccc1)(C(F)(F)F)C(F)(F)F (stereo unspecified)
Result: > 200 µM

Task: Lookup CC(C)(C)[Si](C)(C)OCC1OC(n2cnc3c(=O)[nH]c(N)nc32)C(O[Si](C)(C)C(C)(C)C)C1O[Si](C)(C)C(C)(C)C (stereo unspecified)
Result: > 200 µM

Task: Also CC(C)C(Sc1nc(-c2ccccc2)c(-c2ccccc2)[nH]1)C(=O)NNC(=S)Nc1ccccc1 (stereo unspecified) ?
Result: > 51.3 µM

Task: // same read-out, input: [N-]=[N+]=CC(=O)OC1CCc2ccccc21 (stereo unspecified)
Result: > 200 µM
